These measurements were taken from a melting point compilation (Tetko et al.; mined from patent text by program, amines drawn as free bases though some values may be those of a salt).

Below, each of the compounds is paired with its reported melting point value.
observation type: melting point

compound	measured result
Oc1ccc(Cl)cc1C(c1cc(Cl)ccc1O)C(F)(F)F	144 °C
COc1nn(-c2cccc(Nc3nccs3)c2)c(=O)n(Cc2ccc(Cl)cc2)c1=O	176 to 178 °C
Cc1ccccc1-c1cc2cnc(N)nc2nc1NC(=O)NC(C)(C)C	195 to 197 °C
N#CC(C#N)=Cc1ccc(OCc2ccccc2)cc1	146 to 148 °C
CCn1cc(-c2ccc(O)cc2)nc1S	252 °C
CC1(COc2ccc(N3CCC(Oc4ccc(OC(F)(F)F)cc4)CC3)cc2)Cn2cc([N+](=O)[O-])nc2O1 (stereo not given)	165 to 166 °C
CCCCCCCCCCCCCCOc1ccccc1C(=O)Cc1nnn[nH]1	67 to 69 °C
COc1cc(Cl)c(NS(C)(=O)=O)cc1C(=O)NCC1CCCO1 (stereo not given)	159 to 160 °C
CN(c1ccc(OC(F)(F)F)cc1)C1CCN(C[C@@]2(C)Cn3cc([N+](=O)[O-])nc3O2)CC1	133 to 134 °C
CSc1cc(C(F)(F)F)ccc1C(=O)O	178 to 179 °C

---

Documented melting point across a set of molecules
observation type: melting point

molecule	observation type	measured result
CCOC(=O)C(C)n1ncc2ccc([N+](=O)[O-])cc21 (stereo not given)	melting point	99.7 to 100 °C
CC(C)(C)N(CCOCC#Cc1cncs1)C(=O)C(=O)O	melting point	104 to 105 °C
O=C(Nc1cccc(Cl)c1)ONC1C=NC(c2ccccc2Cl)=c2cc(Cl)ccc2=N1 (stereo not given)	melting point	125 to 137 °C
Cc1ccn2c(C)c(CCc3ccc4nc(C)oc4c3)nc2c1	melting point	83 to 85 °C
COc1ccc(C2=C(C(=O)O)N(Cc3ccc4c(c3)OCO4)S(=O)(=O)c3ccccc32)cc1OC	melting point	267 to 268 °C
CCCNCC(O)c1ccc(F)cc1 (stereo not given)	melting point	58.6 to 78.8 °C
COC(=O)Cn1c(=O)n(C)c(=O)n(-c2cc(F)ccc2[N+](=O)[O-])c1=O	melting point	122 °C
CCOC(=O)c1ccccc1Nc1nc(Nc2ccc3c(c2)CCN(CCOC)CC3)ncc1Cl	melting point	78 to 80 °C
Cc1cnc2nc(C(F)(F)F)n(C)c2c1	melting point	100 °C
CN1CC(Cl)CC2c3cccc4[nH]cc(c34)CC21 (stereo not given)	melting point	195 to 197 °C

---

observation type: melting point

molecule	measured result
C#CCn1c(Br)c(C[C@H](NC(C)=O)C(=O)OC)c2c(Br)c(OC)c(Br)cc21	284 to 285 °C
CC(C)(C)c1ccc(-c2nc(Cl)c3ccccc3n2)cc1	75 to 76.5 °C
CC(C)n1nc(-c2c(-c3ccccc3)nc(N)nc2N2CCCCC2)ccc1=O	221 to 223 °C
CC1(C(=O)c2c[nH]c3ncc(-c4cccs4)nc23)CCCCC1	224 to 225 °C
COc1ccc2c3c1C(=O)CC3CCO2 (stereo unspecified)	122 to 124 °C
FC(F)(F)c1ccc(-c2cc(C(F)(F)F)n3cncc3n2)cc1	158 °C
CCOC(=O)c1cn(Cc2ccc(OCc3coc(-c4ccccc4)n3)cc2)nc1-c1cccs1	114 to 115 °C
CCOC(=O)c1cn(C)c2ccc(C(=O)c3c(C)c(OC)c4ccccn34)cc2c1=O	258 °C
CCCc1c(C(C)C)nc(C(C)C)c(CO)c1-c1ccc(F)cc1	49 to 54 °C
CC(C)(CN)c1ccc(C(=O)NCCc2ccc3[nH]cc(C(=N)N)c3c2)cc1	67 to 70 °C
COC(=O)c1c(OC)cc2oc(C)cc(=O)c2c1OC	188 °C
COC(=O)c1ccccc1NC(=O)CN1CCN(C(=O)c2ccc(OC)cc2)CC1	168 to 169 °C
CC(C)(C)OC(=O)N1CC2CCCCC(C1)C2C(=O)O (stereo unspecified)	218 to 222 °C
CCCC(=O)OC1CSC(Oc2cccnc2)C(OC(=O)CCC)C1OC(=O)CCC (stereo unspecified)	70 °C
CC1CN(N)C(=O)N1C (stereo unspecified)	162 to 164 °C
C(=NNc1ccccc1)c1cccnc1	156 °C
C=C(NC(C)=O)c1ccc(F)cn1	61 to 62.2 °C
COc1cc(CCN2CCN(C)CC2)cc(OC)c1-c1ccc(C[C@H](NC(=O)c2c(Cl)cccc2Cl)C(=O)O)cc1	179 °C
CC(=O)c1ccc2c(c1)C(C(Cl)(Cl)Cl)OC(C(Cl)(Cl)Cl)O2 (stereo unspecified)	104 to 105 °C
COc1cc(COc2nn(-c3ccccc3)cc2/C=C/c2nc(N3CCOCC3)sc2C)ccc1OCc1nc(-c2ccc(CC(=O)O)cc2)oc1C	171 to 173 °C
O=C1NCc2c(cccc2Oc2ccccc2)N1	278 to 280 °C

---

Where a name gives a salt, the structure may show the parent alone. Residues, ends and D or L forms follow the SMILES beside them. *: point of attachment. Tfa = O=C(C(F)(F)F)*

compound	melting point
CCOC(=O)c1ncn2cc(Br)sc12	171 to 172 °C
CCN(CC)CCOc1ccc(-n2c(-c3ccccc3)cc(=O)c3ccccc32)cc1	115 to 117 °C
Nc1nc(Cl)cc(NC2C=CC(CO)C2)n1 (stereo unspecified)	132 to 134 °C
COC1(C(=O)CCc2ccc(-c3ccc(O)cc3)cc2)C=CC(Cl)=CC1N (stereo unspecified)	145 to 150 °C
CCCC(=O)N(NC(N)=S)c1ccccc1	219 to 221 °C
O=C(O)CNC(=O)CNC(=O)C(F)(F)F (Tfa-Gly-Gly-OH)	185 °C
CC#COc1ccc2c(=O)cc(-c3ccccc3)oc2c1	199 to 200 °C
CCC12CCC(=O)C=C1c1c(cc(OCC(=O)OCC(C)=O)c(Cl)c1Cl)C2 (stereo unspecified)	153 to 155 °C
CCOC(=O)C(C)(C)CCCCOc1cc(C)c(N)c(C)c1	32 to 34 °C
O=c1c2ccccc2nc(-c2ccccc2Cl)n1O	211 °C
O=C1CCCC2=C1C(c1ccc(F)c(C(F)(F)F)c1)C1=C(CCS1)N2 (single isomer, unassigned; (+))	> 250 °C
Cn1nnc(-c2ccc(C=Cc3ccc(-c4nc5ccccc5o4)cc3)cc2)c1C#N	264 to 266 °C
CC1(C)CCCC(C)(C)N1c1nc(Cl)cc(Cl)n1	89 to 90 °C
CON=C(C(=O)OC(C)C)c1ccccc1CBr	76 to 77 °C
CCS(=O)(=O)CC=Cc1ccccc1	100 °C
O=C(CCl)Nc1cc(C2(Cl)C=C(C(F)(F)F)C=NC2)ccc1O (stereo unspecified)	205 °C
COc1ccc(C2=NO[C@](CO)(CCO)C2)cc1OC1CCCC1	108 to 109 °C
O=C(Nc1ccc(-n2nc(C(F)(F)F)cc2C(F)(F)F)cc1)c1ccc(Br)cc1Cl	164 to 167 °C
COC(=O)c1ccccc1-c1cc(-c2ccc(Cl)cc2)no1	89.5 to 91 °C
CCOC(=O)C(C)(C)Oc1ccc(-c2ccc(CCNC(=O)c3cccc(C)c3)cc2)cc1	< 20 °C
CCOC(=O)C(=Cc1c(Cl)n(Cc2ccc(Cl)cc2)c2ccccc12)C(=O)OCC	98 to 99 °C
NC(=O)COc1ccc(OCCn2ccnc2)cc1	123 to 124 °C
O=c1oc(-c2ccc(S(=O)c3ccccc3)cc2)cc(O)c1SCCc1ccccc1 (stereo unspecified)	171 to 173 °C
O=C(Nc1cccc2c3c(oc12)CCC=C3)c1c(Cl)cccc1Cl	165 to 167 °C
CCCN(CCC)c1c(CC)nn2c(-c3ccc(OC)cc3C)cccc12	76 to 79 °C
CSc1ccc(-c2ccc(=O)[nH]c2C)cc1	211 to 212 °C
CCOC(=O)c1cc2c([nH]1)c(N(C)S(=O)(=O)c1cccs1)cn2Cc1ccccc1	120 °C
CN1C(=S)N(c2ccc(C#N)c(C(F)(F)F)c2)C(=N)C12CCCC2	165 to 166 °C
O=S(=O)(c1ccccc1)n1c2ccc(Br)cc2c2ccc(Cl)nc21	204 to 206 °C
CC1(CCCCn2c(=O)oc3ccccc32)Cn2cc([N+](=O)[O-])nc2O1 (stereo unspecified)	155 to 158 °C
CC1=CC2=C(N3CN(n4cc(C)nc4-c4cc(Cl)ccc4Cl)C=C3N=N2)N(c2cc(Cl)ccc2Cl)C1	130 °C
NS(=O)(=O)c1ccc(-c2cnn(CC(F)(F)F)c(=O)c2-c2ccc(F)cc2)cc1	193 to 195 °C
O=Cc1ccc(OCc2ccccc2F)c(Cc2ccccc2F)c1	71 °C
COc1cccc2c1Cc1ccccc1C2(CCO)CCO	164 to 167 °C
CCCCCCCCCCCCCCCCCCOc1cc(OCCCBr)cc(C(=O)OCc2ccccc2)c1	57 to 58 °C
COC(=O)C(Br)c1ccc(S(C)(=O)=O)cc1 (stereo unspecified)	81.8 to 83.3 °C
CC1CCC(C)(C)C2=C1CC(O)C(C)(O)C2 (stereo unspecified)	121 to 123 °C
COc1ccc(SSc2ccc(OC)cc2C(N)=O)c(C(N)=O)c1	188 to 189 °C
COc1ccc(C2NC(C(=O)O)CS2)cc1 (stereo unspecified)	150 to 151 °C
COC(=O)C(=C\c1ccc(OC2CCCC2)c(OC)c1)/C(=C\c1ccccc1)C(N)=O	158 to 159 °C
Fc1ccc2c(c1)C(=C1CCNCC1)c1ncccc1CC2	78 to 81 °C
